Experiment: amyloid nucleation score (Sup35N fusion, yeast selection) (log enrichment); library NNK2; higher = more nucleation; inactive = no reads after selection;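 note: zero at mode of non-aggregating sequences after 7 days selection at 30°C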
If the reported amyloid nucleation score equals or exceeds 0.05, assign met. If not, assign not met.

// query Record RGSGSVMNSGYEAASRRLGG ; criterion: amyloid nucleation score no lower than 0.05. Met?
// result not met

// query What about this substance? VWYSDDWSWWGARRLCKNRR
// result met

// query Further, for RRLKLRINMVFLEYGFKSKF ?
// result met

// query Can you handle NKSLFMKFCVSLFRLGSYVT next?
// result not met

// query For HRAWSSVCSKYSSTGTRNLI then?
// result met

// query // query: LDVVWSRVVRCRCVSWGNSL
// result met

// query Now this one: FNVFFAS
// result met

// query Try DEEGRVSPDVARLVAVICGA next.
// result met
